# Tested on: rat DGAT2 mRNA
# Test name: Dose-dependent inhibition of DGAT2 in A10 cells, 0.62-150 nM (Example 22, Table 83)
# Type: cell-based
# Assay context: 16.67 nM
Strand notation (5' to 3'): a small letter for the sugar, then the base; units joined by * are phosphorothioate-linked, units joined directly phosphodiester-linked; [ ] holds rarer units or linkages, { } end groups; capitals alone tell only the bases. e = 2'-O-(2-methoxyethyl) (MOE); [5mC] = 5-methylcytosine; d = 2'-deoxy (DNA)
Measured endpoint: percent inhibition of rat DGAT2

> print(dat)
                                  substance                measured.endpoint  recorded.value
1  372516 (antisense eT*eA*e[5mC]*dA*dG*dA*dA*dG*dG*d[5mC]*dA*d[5mC]*d[5mC]*e[5mC]*eA*eG) [compound 372516]  percent inhibition of rat DGAT2               4
2  372618 (antisense eG*eT*dG*dG*dT*dA*d[5mC]*dA*dG*dG*dT*d[5mC]*eG*eA) [compound 372618]  percent inhibition of rat DGAT2               0
3  372624 (antisense eT*eG*dG*dT*d[5mC]*dT*dT*dG*dT*dG*dA*dT*eT*eG) [compound 372624]  percent inhibition of rat DGAT2               1
4  372546 (antisense eT*eT*eG*dG*dT*d[5mC]*dT*dT*dG*dT*dG*dA*dT*eT*eG*eT) [compound 372546]  percent inhibition of rat DGAT2               4
5  372501 (antisense eT*eT*eG*dT*dG*dT*dG*dT*d[5mC]*dT*dT*d[5mC]*dA*e[5mC]*e[5mC]*eA) [compound 372501]  percent inhibition of rat DGAT2              11
6  372586 (antisense eG*eT*dT*d[5mC]*d[5mC]*dT*dG*dG*dT*dG*dG*dT*e[5mC]*eA) [compound 372586]  percent inhibition of rat DGAT2               0

These data points were gathered from patent US8188059B2.
